experimental-target: nVLP GII.4
assay-protocol: Surface plasmon resonance (SPR) screening of optimized peptides against GII.4
Format: binding, Norovirus
measurement-conditions: SPR dissociation rate, unpurified peptides against nVLP GII.4
Provide the recorded kd-1 for the entries that follow.
Output spec: scalar in s, unitless text.

Q) State the measured kd-1 (nVLP GII.4) of RWVRVKLRSHTKLRYIGSC [Mut Peptide-94, optimized peptide]
A) 0.00294

Q) State the measured kd-1 (nVLP GII.4) of DWARSNTSRSMDFNLGWGSC [nVLP-2WT]
A) 0.0233

Q) State the measured kd-1 (nVLP GII.4) of RWHRVDLRSHTELPRYIGSC [nVLP-6WT]
A) 0.00513

Q) State the measured kd-1 (nVLP GII.4) of RWHRVKLRSHTELNRYIGSC [Mut Peptide-92, optimized peptide]
A) 0.00355

Q) State the measured kd-1 (nVLP GII.4) of VWARKNNKRKKDFNAGWGSC [Mut Peptide-53, optimized peptide]
A) 0.00408

Q) State the measured kd-1 (nVLP GII.4) of LLYNKTFPHGRWSPSYPGSC [nVLP-1WT]
A) 0.00785

Q) State the measured kd-1 (nVLP GII.4) of DWARKNNKRKMNFNLGWGSC [Mut Peptide-60, optimized peptide]
A) 0.00487

Q) State the measured kd-1 (nVLP GII.4) of AWARSNNSRSKAFNLGWGSC [Mut Peptide-81, optimized peptide]
A) 0.00455

Q) State the measured kd-1 (nVLP GII.4) of RWVRVKLRSHTELNRYIGSC [Mut Peptide-93, optimized peptide]
A) 0.00332

Q) State the measured kd-1 (nVLP GII.4) of SWARSNNKRSKAFNLGWGSC [Mut Peptide-78, optimized peptide]
A) 0.00431
